- subject.of.test: Scytalone dehydratase (Magnaporthe oryzae (strain 70-15 / FGSC 8958) (Rice blast fungus)(Pyricularia oryzae))
endpoint.label: Ki
Answer format: number, then unit.

Quick one: Ki for CC(COc1ccccc1)NC(=O)C(C#N)C(C)(C)C (configuration not stated) ?
2.8 nM

Input C[C@H](COc1ccccc1)NC(=O)[C@@H](C#N)C(C)(C)C (stereo in doubt; 6e)
1.3 nM

Input CC[C@]1(C(=O)N[C@H](C)COc2ccc(F)cc2)C(C)C1(Cl)Cl (some centres not stated)
0.22 nM

Input CC[C@]1(C(=O)N[C@H](C)COc2ccccc2F)C(C)C1(Cl)Cl (some centres not stated)
0.37 nM

Input CC(COc1ccccc1F)NC(=O)C(C#N)C(C)(C)C (configuration not stated)
0.24 nM

Input C[C@H](COc1ccccc1)NC(=O)c1cc(F)ccc1O
0.44 nM

Input C[C@H](COc1cc(F)ccc1F)NC(=O)[C@H](C#N)C(C)(C)C
0.73 nM

----------
Assignment: determine reported Adjusted Ki for the given compounds.
- subject.of.test: Scytalone dehydratase (Magnaporthe oryzae (strain 70-15 / FGSC 8958) (Rice blast fungus)(Pyricularia oryzae), UniProt P56221)
API: value field is a number in nM; no unit string.

Quick one: Adjusted Ki for CC[C@]1(C(=O)N[C@H](C)COc2cc(F)ccc2F)C(C)C1(Cl)Cl (some centres not stated) ?
0.042

Input CC[C@]1(C(=O)N[C@H](C)COc2ccccc2)C(C)C1(Cl)Cl (some centres not stated)
0.0835

Input CC[C@]1(C(=O)NC(C)CCc2ccccc2)C(C)C1(Cl)Cl (some centres not stated)
0.21

Input CC[C@]1(C(=O)N[C@H](C)COc2ccccc2F)C(C)C1(Cl)Cl (some centres not stated)
0.19

Input C[C@H](COc1ccccc1)NC(=O)[C@@H](C#N)C(C)(C)C (stereo in doubt; 6e)
0.66

Input CC[C@]1(C(=O)NCCCc2ccccc2)C(C)C1(Cl)Cl (some centres not stated)
0.96

Input C[C@H](COc1ccccc1)NC(=O)[C@@H](C#N)C(C)(C)C (stereo in doubt; 6f)
0.58

Input C[C@H](COc1cc(F)ccc1F)NC(=O)[C@H](C#N)C(C)(C)C
0.73

Input CC(CCc1ccccc1)NC(=O)C(C#N)C(C)(C)C (configuration not stated)
1.8

Input CC[C@]1(C(=O)NC(C)COc2ccccc2)C(C)C1(Cl)Cl (some centres not stated)
0.094

Input CC[C@]1(C(=O)N[C@H](C)COc2cccc(F)c2F)C(C)C1(Cl)Cl (some centres not stated)
2.2

Input CC(COc1ccccc1F)NC(=O)C(C#N)C(C)(C)C (configuration not stated)
0.059

Input CC(COc1ccccc1)NC(=O)C(C#N)C(C)(C)C (configuration not stated)
0.7

Input C[C@H](COc1cc(F)ccc1F)NC(=O)C(C#N)C(C)(C)C (some centres not stated)
0.021

Input CC[C@]1(C(=O)N[C@H](C)COc2cccc(F)c2)C(C)C1(Cl)Cl (some centres not stated)
0.057

Input CC(COc1cccc(F)c1)NC(=O)[C@@H](C#N)C(C)(C)C (some centres not stated)
0.23

Input C[C@H](COc1cccc(F)c1)NC(=O)[C@@H](C#N)C(C)(C)C
0.24

Input CC(C)(C)C(C#N)C(=O)NCCCc1ccccc1 (configuration not stated)
6.8

Input C[C@H](COc1cc(F)ccc1F)NC(=O)[C@@H](C#N)C(C)(C)C
0.02

Input CC[C@]1(C(=O)N[C@H](C)COc2ccc(F)cc2)C(C)C1(Cl)Cl (some centres not stated)
0.11

Input CC[C@]1(C(=O)N[C@@H](C)COc2cc(F)ccc2F)C(C)C1(Cl)Cl (some centres not stated)
16

Input C[C@@H](COc1cc(F)ccc1F)NC(=O)[C@@H](C#N)C(C)(C)C
7.7

----------
- subject.of.test: Scytalone dehydratase (Magnaporthe oryzae (strain 70-15 / FGSC 8958) (Rice blast fungus)(Pyricularia oryzae))
- Sequence (P56221 whole entry): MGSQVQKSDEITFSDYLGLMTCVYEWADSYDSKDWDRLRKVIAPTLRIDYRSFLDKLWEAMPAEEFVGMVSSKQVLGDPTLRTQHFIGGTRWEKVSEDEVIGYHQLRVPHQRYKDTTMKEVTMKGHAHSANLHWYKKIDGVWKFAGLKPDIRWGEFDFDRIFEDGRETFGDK
endpoint.label: Ki (nM)
API: value field is a number in nM; no unit string.

Quick one: Ki for C[C@H](COc1ccccc1)NC(=O)[C@@H](C#N)C(C)(C)C (stereo in doubt; 6f) ?
0.58

Input CC[C@]1(C(=O)N[C@H](C)COc2cc(F)ccc2F)C(C)C1(Cl)Cl (some centres not stated)
0.085

Input CC[C@]1(C(=O)N[C@H](C)COc2ccccc2)C(C)C1(Cl)Cl (some centres not stated)
0.17

Input C[C@H](COc1cc(F)ccc1F)NC(=O)[C@@H](C#N)C(C)(C)C
0.02

Input C[C@@H](COc1cc(F)ccc1F)NC(=O)[C@H](C#N)C(C)(C)C
97

Input C[C@H](COc1ccccc1)NC(=O)[C@H](C#N)C(C)(C)C
66

Input CC(C)(C)C(C#N)C(=O)NCCCc1ccccc1 (configuration not stated)
13.6

Input C[C@H](COc1ccccc1F)NC(=O)[C@@H](C#N)C(C)(C)C
0.08

Input CC[C@]1(C(=O)NCCCc2ccccc2)C(C)C1(Cl)Cl (some centres not stated)
1.9

Input C[C@H](COc1cccc(F)c1)NC(=O)[C@@H](C#N)C(C)(C)C
0.24

Input CC[C@]1(C(=O)N[C@@H](C)COc2cc(F)ccc2F)C(C)C1(Cl)Cl (some centres not stated)
33

Input C[C@H](COc1ccc(F)cc1)NC(=O)C(C#N)C(C)(C)C (some centres not stated)
1.7

Input CC[C@]1(C(=O)N[C@H](C)COc2cccc(F)c2)C(C)C1(Cl)Cl (some centres not stated)
0.11

Input CC[C@]1(C(=O)N[C@H](C)COc2cccc(F)c2F)C(C)C1(Cl)Cl (some centres not stated)
2.2

Input CC[C@]1(C(=O)NCCOc2ccccc2)C(C)C1(Cl)Cl (some centres not stated)
7.5

Input CC(COc1cccc(F)c1)NC(=O)[C@@H](C#N)C(C)(C)C (some centres not stated)
0.46

Input C[C@H](COc1cccc(F)c1F)NC(=O)[C@@H](C#N)C(C)(C)C
0.95

Input CC(CCc1ccccc1)NC(=O)C(C#N)C(C)(C)C (configuration not stated)
7.2

Input CC[C@]1(C(=O)NC(C)COc2ccccc2)C(C)C1(Cl)Cl (some centres not stated)
0.38

Input C[C@H](COc1cc(F)ccc1F)NC(=O)C(C#N)C(C)(C)C (some centres not stated)
0.042

Input CC[C@]1(C(=O)NC(C)CCc2ccccc2)C(C)C1(Cl)Cl (some centres not stated)
0.83

Input C[C@@H](COc1cc(F)ccc1F)NC(=O)[C@@H](C#N)C(C)(C)C
7.7

----------
Assignment: determine reported Adjusted Ki for the given compounds.
- subject.of.test: Scytalone dehydratase (Magnaporthe oryzae (strain 70-15 / FGSC 8958) (Rice blast fungus)(Pyricularia oryzae), UniProt P56221)
- Sequence (P56221 whole entry): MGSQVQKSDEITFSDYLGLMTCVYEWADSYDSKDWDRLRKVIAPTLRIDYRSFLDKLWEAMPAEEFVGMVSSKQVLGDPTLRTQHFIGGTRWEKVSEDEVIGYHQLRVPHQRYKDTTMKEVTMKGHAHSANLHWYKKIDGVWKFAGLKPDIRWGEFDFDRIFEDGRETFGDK
API: value field is a number in nM; no unit string.

Quick one: Adjusted Ki for C[C@H](COc1ccccc1F)NC(=O)[C@@H](C#N)C(C)(C)C ?
0.08

Input C[C@H](COc1ccc(F)cc1)NC(=O)C(C#N)C(C)(C)C (stereo partly specified)
0.83

Input C[C@H](COc1ccccc1)NC(=O)[C@H](C#N)C(C)(C)C
33

Input C[C@@H](COc1cc(F)ccc1F)NC(=O)[C@H](C#N)C(C)(C)C
97

Input C[C@H](COc1cccc(F)c1F)NC(=O)[C@@H](C#N)C(C)(C)C
0.95

Input CC[C@]1(C(=O)NCCOc2ccccc2)C(C)C1(Cl)Cl (stereo partly specified)
3.7
